- Organism: Rattus norvegicus
- assay procedure: Open TG-GATES - Regimen: Daily Repeat
- Format: toxicity, organism-based, Sprague-Dawley
- Design: regimen Daily Repeat, gender Male, age 6 weeks
- condition: in vivo, po, 0 mg/kg, […], tissue Blood, route gavage, dose level Control, time 7 day
value type: Hb (g/dL)
Numeric only. Scale: g/dL

Some molecules with recorded Hb:
Cc1cccc(Nc2ccccc2C(=O)O)c1C [MEFENAMIC ACID]
13.8
CN(C)[C@@H]1C(O)=C(C(N)=O)C(=O)[C@@]2(O)C(O)=C3C(=O)c4c(O)cccc4[C@@](C)(O)[C@H]3C[C@@H]12 [TETRACYCLINE]
13.6
Clc1c(Cl)c(Cl)c(Cl)c(Cl)c1Cl [PERCHLOROBENZENE]
14.2

Request: Which Hb is reported for this molecule? CC(CN1c2ccccc2Sc2ccccc21)N(C)C (stereo not drawn) [PROMETHAZINE]
Response: 12.9

Request: Which Hb is reported for this molecule? C1CCC(C(CC2CCCCN2)C2CCCCC2)CC1 (stereo not drawn) [PERHEXILINE]
Response: 13.5

Request: Which Hb is reported for this molecule? CCOC(=O)[C@H](CCc1ccccc1)N[C@@H](C)C(=O)N1CCC[C@H]1C(=O)O
Response: 13.9

Request: Which Hb is reported for this molecule? C#C[C@]1(O)CC[C@H]2[C@@H]3CCC4=Cc5oncc5C[C@]4(C)[C@H]3CC[C@@]21C [DANAZOL]
Response: 13.8

Request: Which Hb is reported for this molecule? CN1C(C(=O)Nc2ccccn2)=C(O)c2sc(Cl)cc2S1(=O)=O [LORNOXICAM]
Response: 13.8

###

- Organism: Rattus norvegicus
- assay procedure: Open TG-GATES - Regimen: Single
- Type: toxicity, organism-based, Sprague-Dawley
- Parameters: regimen Single, gender Male, age 6 weeks
- condition: in vivo, po, 0 mg/kg, 9 h, tissue Blood, route gavage, dose level Control
value type: MCH (pg)
Numeric only. Scale: pg

Request: Which MCH is reported for this compound? Clc1c(Cl)c(Cl)c(Cl)c(Cl)c1Cl [PERCHLOROBENZENE]
Response: 21.1

Request: Which MCH is reported for this compound? CC(=O)Nc1nnc(S(N)(=O)=O)s1 [ACETAZOLAMIDE]
Response: 20.8

Request: Which MCH is reported for this compound? Cc1cccc(Nc2ccccc2C(=O)O)c1C [MEFENAMIC ACID]
Response: 22.2

Request: Which MCH is reported for this compound? CN(C)[C@@H]1C(O)=C(C(N)=O)C(=O)[C@@]2(O)C(O)=C3C(=O)c4c(O)cccc4[C@@](C)(O)[C@H]3C[C@@H]12 [TETRACYCLINE]
Response: 21.7

Request: Which MCH is reported for this compound? CCOC(=O)[C@H](CCc1ccccc1)N[C@@H](C)C(=O)N1CCC[C@H]1C(=O)O
Response: 21.9

Request: Which MCH is reported for this compound? CC(CN1c2ccccc2Sc2ccccc21)N(C)C (stereo not drawn) [PROMETHAZINE]
Response: 20.8

Request: Which MCH is reported for this compound? COc1cc([C@@H]2c3cc4c(cc3[C@@H](O[C@@H]3O[C@@H]5CO[C@@H](C)O[C@H]5[C@H](O)[C@H]3O)[C@H]3COC(=O)[C@H]23)OCO4)cc(OC)c1O [ETOPOSIDE]
Response: 22.2

Request: Which MCH is reported for this compound? CN1C(C(=O)Nc2ccccn2)=C(O)c2sc(Cl)cc2S1(=O)=O [LORNOXICAM]
Response: 20.9

###

- Species on record: Rattus norvegicus
- assay procedure: Open TG-GATES - Regimen: Daily Repeat
- Assay type: toxicity, organism-based, Sprague-Dawley
- Parameters: regimen Daily Repeat, gender Male, age 6 weeks
- condition: in vivo, po, 0 mg/kg, 72 h, tissue Plasma, route gavage, dose level Control, time 3 day
value type: K (meq/L)
Numeric only. Scale: meq/L

Request: Which K is reported for this compound? CN1C(C(=O)Nc2ccccn2)=C(O)c2sc(Cl)cc2S1(=O)=O [LORNOXICAM]
Response: 4.1

Request: Which K is reported for this compound? Clc1c(Cl)c(Cl)c(Cl)c(Cl)c1Cl [PERCHLOROBENZENE]
Response: 5.4

Request: Which K is reported for this compound? C1CCC(C(CC2CCCCN2)C2CCCCC2)CC1 (centres undefined) [PERHEXILINE]
Response: 4.3

Request: Which K is reported for this compound? C#C[C@]1(O)CC[C@H]2[C@@H]3CCC4=Cc5oncc5C[C@]4(C)[C@H]3CC[C@@]21C [DANAZOL]
Response: 4.2

Request: Which K is reported for this compound? CCOC(=O)[C@H](CCc1ccccc1)N[C@@H](C)C(=O)N1CCC[C@H]1C(=O)O
Response: 4.7

Request: Which K is reported for this compound? Cc1cccc(Nc2ccccc2C(=O)O)c1C [MEFENAMIC ACID]
Response: 4.2

Request: Which K is reported for this compound? CN(C)[C@@H]1C(O)=C(C(N)=O)C(=O)[C@@]2(O)C(O)=C3C(=O)c4c(O)cccc4[C@@](C)(O)[C@H]3C[C@@H]12 [TETRACYCLINE]
Response: 4.7

Request: Which K is reported for this compound? CC(CN1c2ccccc2Sc2ccccc21)N(C)C (centres undefined) [PROMETHAZINE]
Response: 4.6

Request: Which K is reported for this compound? CC(=O)Nc1nnc(S(N)(=O)=O)s1 [ACETAZOLAMIDE]
Response: 4.3

###

- Species: Rattus norvegicus
- assay procedure: Open TG-GATES - Regimen: Daily Repeat
- Type: toxicity, organism-based, Sprague-Dawley
- Set-up: regimen Daily Repeat, gender Male, age 6 weeks
- condition: in vivo, po, 0 mg/kg, 72 h, tissue Plasma, route gavage, dose level Control, time 3 day
value type: CRE
Hey, just the number and the unit after it is fine.

Some compounds with recorded CRE:
CN(C)[C@@H]1C(O)=C(C(N)=O)C(=O)[C@@]2(O)C(O)=C3C(=O)c4c(O)cccc4[C@@](C)(O)[C@H]3C[C@@H]12
0.6 mg/dL
C#C[C@]1(O)CC[C@H]2[C@@H]3CCC4=Cc5oncc5C[C@]4(C)[C@H]3CC[C@@]21C
0.2 mg/dL
O=C(O)Cc1ccccc1Nc1c(Cl)cccc1Cl
0.4 mg/dL
CC(CN1c2ccccc2Sc2ccccc21)N(C)C (stereo not given)
0.2 mg/dL
Cc1cccc(Nc2ccccc2C(=O)O)c1C
0.4 mg/dL
CCOC(=O)[C@H](CCc1ccccc1)N[C@@H](C)C(=O)N1CCC[C@H]1C(=O)O
0.5 mg/dL
CC(=O)Nc1nnc(S(N)(=O)=O)s1 [ACETAZOLAMIDE]
0.1 mg/dL
C1CCC(C(CC2CCCCN2)C2CCCCC2)CC1 (stereo not given)
0.1 mg/dL

Request: Which CRE is reported for this compound? Clc1c(Cl)c(Cl)c(Cl)c(Cl)c1Cl
Response: 0.5 mg/dL

Request: Which CRE is reported for this compound? CN1C(C(=O)Nc2ccccn2)=C(O)c2sc(Cl)cc2S1(=O)=O
Response: 0.4 mg/dL

###

- Species on record: Rattus norvegicus
- assay procedure: Open TG-GATES - Regimen: Single
- Type: toxicity, organism-based, Sprague-Dawley
- Set-up: regimen Single, gender Male, age 6 weeks
- condition: in vivo, po, 0 mg/kg, 24 h, tissue Blood, route gavage, dose level Control
value type: Lym (%)
Numeric only. Scale: %

Some compounds with recorded Lym:
C#C[C@]1(O)CC[C@H]2[C@@H]3CCC4=Cc5oncc5C[C@]4(C)[C@H]3CC[C@@]21C
81.4
Cc1cccc(Nc2ccccc2C(=O)O)c1C
79.2
C1CCC(C(CC2CCCCN2)C2CCCCC2)CC1 (stereo not given)
74.8

Request: Which Lym is reported for this compound? CC(CN1c2ccccc2Sc2ccccc21)N(C)C (stereo not given)
Response: 81.6

Request: Which Lym is reported for this compound? CN1C(C(=O)Nc2ccccn2)=C(O)c2sc(Cl)cc2S1(=O)=O
Response: 80

Request: Which Lym is reported for this compound? Clc1c(Cl)c(Cl)c(Cl)c(Cl)c1Cl
Response: 80.8

Request: Which Lym is reported for this compound? COc1cc([C@@H]2c3cc4c(cc3[C@@H](O[C@@H]3O[C@@H]5CO[C@@H](C)O[C@H]5[C@H](O)[C@H]3O)[C@H]3COC(=O)[C@H]23)OCO4)cc(OC)c1O [ETOPOSIDE]
Response: 78.2

Request: Which Lym is reported for this compound? CCOC(=O)[C@H](CCc1ccccc1)N[C@@H](C)C(=O)N1CCC[C@H]1C(=O)O
Response: 71.6

Request: Which Lym is reported for this compound? O=[N+]([O-])c1ccc2c(c1)Cc1ccccc1-2
Response: 78.4

Request: Which Lym is reported for this compound? CN(C)[C@@H]1C(O)=C(C(N)=O)C(=O)[C@@]2(O)C(O)=C3C(=O)c4c(O)cccc4[C@@](C)(O)[C@H]3C[C@@H]12
Response: 76.6
